procedure summary: Cytotoxicity against HEL assessed as change in cell morphology
Type: cell-based
particulars: human, HEL cells
attribute measured: MCC

[
  {
    "compound": "CCCCCCCCCCCCCCCCCCOCCO[P@@]1(=O)CO[C@@H](Cn2cnc3c(N)nc(N)nc32)CO1",
    "MCC": "6.7 µM"
  },
  {
    "compound": "CC(C)(C)C(=O)OCOP1(=O)CO[C@@H](Cn2cnc3c(N)nc(N)nc32)CO1 (some centres undefined)",
    "MCC": "≥ 231 µM"
  },
  {
    "compound": "Nc1nc(N)c2ncn(C[C@H]3COP(=O)(OCC(F)(F)F)CO3)c2n1 (some centres undefined)",
    "MCC": "> 239 µM"
  },
  {
    "compound": "Nc1nc(N)c2ncn(C[C@@H](CO)OCP(=O)(O)O)c2n1",
    "MCC": "> 314 µM"
  },
  {
    "compound": "CCCCCCCCCCCCCCCCCCOCCOP(=O)(O)CO[C@H](CO)Cn1cnc2c(N)nc(N)nc21",
    "MCC": "≥ 6.3 µM"
  }
]

Specify MCC for CC(C)OC(=O)[C@@H](CO[P@]1(=O)CO[C@@H](Cn2cnc3c(N)nc(N)nc32)CO1)NC(=O)[C@@H](N)C(C)C and stop.
≥ 177 µM

Specify MCC for CCCCCCCCCCCCCCCCOCCO[P@@]1(=O)CO[C@@H](Cn2cnc3c(N)nc(N)nc32)CO1 and stop.
35.2 µM

Specify MCC for Nc1nc(N)c2ncn(C[C@@H](CO)OCP(=O)(O)OCC(F)(F)F)c2n1 and stop.
> 250 µM

Specify MCC for CCCCCCCCCCCCCCCCOCCO[P@]1(=O)CO[C@@H](Cn2cnc3c(N)nc(N)nc32)CO1 and stop.
35.2 µM

----------
procedure summary: Cytotoxicity against HEL assessed as change in cell morphology
Type: cell-based
particulars: human, HEL cells
attribute measured: CC50

Specify CC50 for O=c1[nH]c(=O)n([C@H]2C[C@H](O)[C@@H](CO)O2)cc1/C=C/Br and stop.
> 300 µM

----------
procedure summary: Cytotoxicity against HEL assessed as change in cell morphology
Type: cell-based
particulars: human, HEL cells
attribute measured: MCC

Field: example entries. Status: answers known.
[
  {
    "compound": "CCCCCCCCCCCCCCCCOCCCOP(=O)(O)CO[C@H](CO)Cn1cnc2c(N)nc(N)nc21",
    "MCC": "≥ 6.4 µM"
  },
  {
    "compound": "CC(C)OC(=O)[C@@H](CO[P@@]1(=O)CO[C@@H](Cn2cnc3c(N)nc(N)nc32)CO1)NC(=O)[C@@H](N)C(C)C",
    "MCC": "> 177 µM"
  },
  {
    "compound": "Nc1ccn(C[C@@H](CO)OCP(=O)(O)O)c(=O)n1",
    "MCC": "≥ 317 µM"
  },
  {
    "compound": "Nc1nc2c(ncn2COC(CO)CO)c(=O)[nH]1",
    "MCC": "≥ 392 µM"
  },
  {
    "compound": "Nc1nc2c(ncn2COCCO)c(=O)[nH]1",
    "MCC": "> 444 µM"
  }
]

Continue with the next compound.
Specify MCC for CCCCCCCCCCCCCCCCCCOCCO[P@]1(=O)CO[C@@H](Cn2cnc3c(N)nc(N)nc32)CO1 and stop.
6.7 µM

----------
procedure summary: Cytotoxicity against HEL
Type: cell-based
particulars: human, HEL cells
Quick reference: log10 of CC50 of the listed items.
In plain terms, each number is the log10 of measured CC50 in µM.

Field: example entries. Status: answers known.
[
  {
    "molecule": "CCCCCCCCCCCCCCCCOCCCOP1(=O)CO[C@@H](Cn2cnc3c(N)nc(N)nc32)CO1 (stereo partly specified)",
    "attribute measured": "log10 of CC50",
    "reading": 1.14
  },
  {
    "molecule": "Nc1ccn(C[C@@H](CO)OCP(=O)(O)O)c(=O)n1",
    "attribute measured": "log10 of CC50",
    "reading": 2.71
  },
  {
    "molecule": "CC(C)OC(=O)[C@@H](CO[P@]1(=O)CO[C@@H](Cn2cnc3c(N)nc(N)nc32)CO1)NC(=O)[C@@H](N)C(C)C",
    "attribute measured": "log10 of CC50",
    "reading": 2.20
  },
  {
    "molecule": "Nc1nc2c(ncn2COC(CO)CO)c(=O)[nH]1",
    "attribute measured": "log10 of CC50",
    "reading": 3.03
  },
  {
    "molecule": "CC(C)OC(=O)[C@@H](CO[P@@]1(=O)CO[C@@H](Cn2cnc3c(N)nc(N)nc32)CO1)NC(=O)[C@@H](N)C(C)C",
    "attribute measured": "log10 of CC50",
    "reading": 2.17
  }
]

Continue with the next molecule.
Specify log10 of CC50 for O=c1[nH]c(=O)n([C@H]2C[C@H](O)[C@@H](CO)O2)cc1/C=C/Br and stop.
2.53

----------
Quick reference: EC50 of the listed items.
System: Human alphaherpesvirus 2
procedure summary: Antiviral activity against […] infected in HEL assessed as reduction in virus-induce cytopathicity
Assay type: functional, organism-based
particulars: Human alphaherpesvirus 2, strain G
Lab book: enter the figure in nM, no units written.

[
  {
    "molecule": "CC(C)(C)C(=O)OCOP1(=O)CO[C@@H](Cn2cnc3c(N)nc(N)nc32)CO1 (some centres undefined)",
    "EC50 [nM]": 1340
  },
  {
    "molecule": "O=c1[nH]c(=O)n([C@H]2C[C@H](O)[C@@H](CO)O2)cc1/C=C/Br",
    "EC50 [nM]": 75300
  },
  {
    "molecule": "Nc1nc(N)c2ncn(C[C@@H](CO)OCP(=O)(O)O)c2n1",
    "EC50 [nM]": 2830
  },
  {
    "molecule": "CCCCCCCCCCCCCCCCOCCCOP1(=O)CO[C@@H](Cn2cnc3c(N)nc(N)nc32)CO1 (some centres undefined)",
    "EC50 [nM]": 53
  },
  {
    "molecule": "CCCCCCCCCCCCCCCCCCOCCOP(=O)(O)CO[C@H](CO)Cn1cnc2c(N)nc(N)nc21",
    "EC50 [nM]": 2.2
  }
]

Specify EC50 for Nc1nc2c(ncn2COCCO)c(=O)[nH]1 and stop.
300

Specify EC50 for CC(C)OC(=O)[C@@H](CO[P@]1(=O)CO[C@@H](Cn2cnc3c(N)nc(N)nc32)CO1)NC(=O)[C@@H](N)C(C)C and stop.
2300

Specify EC50 for CCCCCCCCCCCCCCCCOCCO[P@@]1(=O)CO[C@@H](Cn2cnc3c(N)nc(N)nc32)CO1 and stop.
8

Specify EC50 for Nc1nc(N)c2ncn(C[C@H]3COP(=O)(OCC(F)(F)F)CO3)c2n1 (some centres undefined) and stop.
1910

----------
Tested on: Human alphaherpesvirus 1
procedure summary: Antiviral activity against acyclovir-resistant HSV1 KOS infected in HEL assessed as reduction in virus-induce cytopathicity
Format: functional, organism-based
particulars: Human alphaherpesvirus 1, KOS
pEC50: −log10 of the molar value.
Label -1 if pEC50 falls below 6; label 1 in every other case.

Look over these answered cases.
[
  {
    "compound": "CC(C)OC(=O)[C@@H](CO[P@@]1(=O)CO[C@@H](Cn2cnc3c(N)nc(N)nc32)CO1)NC(=O)[C@@H](N)C(C)C",
    "subject of test": "Human alphaherpesvirus 1",
    "label": -1
  },
  {
    "compound": "CC(C)(C)C(=O)OCOP1(=O)CO[C@@H](Cn2cnc3c(N)nc(N)nc32)CO1 (stereo not given in full)",
    "subject of test": "Human alphaherpesvirus 1",
    "label": -1
  },
  {
    "compound": "CC(C)(C)C(=O)OCOP(=O)(O)CO[C@H](CO)Cn1cnc2c(N)nc(N)nc21",
    "subject of test": "Human alphaherpesvirus 1",
    "label": -1
  },
  {
    "compound": "Nc1nc(N)c2ncn(C[C@H]3COP(=O)(O)CO3)c2n1",
    "subject of test": "Human alphaherpesvirus 1",
    "label": -1
  },
  {
    "compound": "CCCCCCCCCCCCCCCCOCCCOP1(=O)CO[C@@H](Cn2cnc3c(N)nc(N)nc32)CO1 (stereo not given in full)",
    "subject of test": "Human alphaherpesvirus 1",
    "label": 1
  },
  {
    "compound": "CCCCCCCCCCCCCCCCCCOCCO[P@@]1(=O)CO[C@@H](Cn2cnc3c(N)nc(N)nc32)CO1",
    "subject of test": "Human alphaherpesvirus 1",
    "label": 1
  },
  {
    "compound": "CCCCCCCCCCCCCCCCOCCCOP(=O)(O)CO[C@H](CO)Cn1cnc2c(N)nc(N)nc21",
    "subject of test": "Human alphaherpesvirus 1",
    "label": 1
  },
  {
    "compound": "O=c1[nH]c(=O)n([C@H]2C[C@H](O)[C@@H](CO)O2)cc1/C=C/Br",
    "subject of test": "Human alphaherpesvirus 1",
    "label": -1
  }
]

Is it the case that CCCCCCCCCCCCCCCCOCCO[P@@]1(=O)CO[C@@H](Cn2cnc3c(N)nc(N)nc32)CO1 has pEC50 reaching or exceeding 6?
1

Is it the case that CCCCCCCCCCCCCCCCOCCO[P@]1(=O)CO[C@@H](Cn2cnc3c(N)nc(N)nc32)CO1 has pEC50 reaching or exceeding 6?
1

Is it the case that Nc1nc2c(ncn2COCCO)c(=O)[nH]1 has pEC50 reaching or exceeding 6?
-1

Is it the case that CCCCOC(=O)c1ccccc1OP1(=O)CO[C@@H](Cn2cnc3c(N)nc(N)nc32)CO1 (stereo not given in full) has pEC50 reaching or exceeding 6?
-1

Is it the case that CC(C)OC(=O)[C@@H](CO[P@]1(=O)CO[C@@H](Cn2cnc3c(N)nc(N)nc32)CO1)NC(=O)[C@@H](N)C(C)C has pEC50 reaching or exceeding 6?
-1

Is it the case that CCCCCCCCCCCCCCCCCCOCCOP(=O)(O)CO[C@H](CO)Cn1cnc2c(N)nc(N)nc21 has pEC50 reaching or exceeding 6?
1

Is it the case that CC(C)(C)C(=O)OCO[P@]1(=O)CO[C@@H](Cn2cnc3c(N)nc(N)nc32)CO1 has pEC50 reaching or exceeding 6?
-1

Is it the case that CCCCCCCCCCCCCCCCCCOCCO[P@]1(=O)CO[C@@H](Cn2cnc3c(N)nc(N)nc32)CO1 has pEC50 reaching or exceeding 6?
1

Is it the case that Nc1nc(N)c2ncn(C[C@H]3COP(=O)(OCC(F)(F)F)CO3)c2n1 (stereo not given in full) has pEC50 reaching or exceeding 6?
-1

Is it the case that Nc1nc(N)c2ncn(C[C@@H](CO)OCP(=O)(O)OCC(F)(F)F)c2n1 has pEC50 reaching or exceeding 6?
-1

Data origin: ChEMBL document CHEMBL1255569
